Where do these numbers come from? They come from ChEMBL document CHEMBL1124123.

Biological target: 5-hydroxytryptamine receptor 1B (Rattus norvegicus)
Sequence (P28564 whole entry): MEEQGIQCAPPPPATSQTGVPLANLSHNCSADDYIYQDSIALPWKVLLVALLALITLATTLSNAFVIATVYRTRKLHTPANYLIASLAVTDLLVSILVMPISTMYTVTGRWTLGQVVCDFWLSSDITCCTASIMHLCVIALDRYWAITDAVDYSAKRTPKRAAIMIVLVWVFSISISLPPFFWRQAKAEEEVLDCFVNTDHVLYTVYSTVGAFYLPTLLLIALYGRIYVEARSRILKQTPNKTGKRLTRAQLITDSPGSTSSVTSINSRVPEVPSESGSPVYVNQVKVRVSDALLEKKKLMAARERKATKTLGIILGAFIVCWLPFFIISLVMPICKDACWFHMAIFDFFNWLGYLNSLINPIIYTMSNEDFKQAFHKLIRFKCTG
Test: Binding affinity towards 5-HT1B receptor in rat brain membrane using [3H]8-OH-DPAT as a selective ligand.
Format: cell membranes
measured parameter: pIC50
By convention, pIC50 is the negative base-10 log of a molar concentration.

Q: # query: pIC50 | item CSc1ccc2c(c1)[C@@H](N1CCN(C)CC1)Cc1ccccc1S2 | system: 5-hydroxytryptamine receptor 1B (Rattus norvegicus)
Ans: 6.74
